Data provenance is the supplement of paper PMC10567573.

Would you mind telling me the reported protein stability index of each entry?
B1: POMT2 (parent)
chain: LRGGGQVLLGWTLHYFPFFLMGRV

# Variants of: B1
# method-description: protein stability index of a GFP-peptide fusion (GPS, HEK-293T) (PSI 1-6); higher = more stable;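 also: lentivirally expressed fusions sorted by FACS into six bins by GFP to DsRed ratio, PSI derived from sequencing read proportions per bin multiplied by bin number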
# details: c terminus: a fixed tail appended

Before answering, review these 2 worked examples.
1. LRGGGQVLLGWTLHYFPFALMGRV | 2.89
2. LRGGGQVLLWWTLHYFPFFLMGRV | 2.32

Each variant below has a reported value. Please supply its protein stability index.
1. LRGGGQVLLGWTLHRFPFFLMGRV
2. LRGGGQVLLGWTLHYFPTFLMGRV
3. LRGGGQVLLGWYLHYFPFFLMGRV
4. LRYGGQVLLGWTLHYFPFFLMGRV
5. LRWGGQVLLGWTLHYFPFFLMGRV

[2.02, 1.98, 2.7, 4.15, 5.12]

Each variant below has a reported value. Please supply its protein stability index.
1. LRGGGQVLLGWTLHYFPFFLMGIV
2. LRGGGQVLLGWTLHYEPFFLMGRV
3. LRGFGQVLLGWTLHYFPFFLMGRV
4. LRGGGQVLLGWTLHYFPFFLMGWV
5. LRGGGQVLLGWTLHYFPFNLMGRV
6. LRGGGQVLLGWTLHDFPFFLMGRV
7. LRNGGQVLLGWTLHYFPFFLMGRV
8. LRGGGQVLLGWTLHYGPFFLMGRV

1: 4.29; 2: 3.44; 3: 1.41; 4: 3.02; 5: 2.04; 6: 1.72; 7: 2.48; 8: 3.06

Each variant below has a reported value. Please supply its protein stability index.
1. LRGGGQCLLGWTLHYFPFFLMGRV
2. LRGGGQVLLGWTLYYFPFFLMGRV
3. LRGGDQVLLGWTLHYFPFFLMGRV
4. LRGGGQVLLQWTLHYFPFFLMGRV
5. LRGGGQVVLGWTLHYFPFFLMGRV
6. DRGGGQVLLGWTLHYFPFFLMGRV
7. LRGGGQVNLGWTLHYFPFFLMGRV

1.26
3.36
3.03
3.64
1.64
2.89
3
